Target: E. coli TrxR (Escherichia coli, UniProt P0A9P4)
Sequence (P0A9P4 whole entry): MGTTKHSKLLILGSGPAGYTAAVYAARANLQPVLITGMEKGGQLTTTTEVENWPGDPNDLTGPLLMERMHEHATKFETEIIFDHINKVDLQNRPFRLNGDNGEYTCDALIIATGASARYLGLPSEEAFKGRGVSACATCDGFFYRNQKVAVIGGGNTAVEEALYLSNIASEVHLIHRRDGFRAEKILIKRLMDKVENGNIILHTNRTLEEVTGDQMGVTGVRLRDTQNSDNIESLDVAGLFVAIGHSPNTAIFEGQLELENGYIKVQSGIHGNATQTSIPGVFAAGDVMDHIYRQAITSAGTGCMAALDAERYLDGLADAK
Assay: E. coli TrxR inhibition, thioredoxin dependent DTNB reduction assay
Type: biochemical
pIC50: −log10 of the molar value.
observable: pIC50

Recorded pIC50 of O=c1c2ccccc2[se]n1-c1ccc(Cl)cc1 , please.
< 4.40

Where do these numbers come from? They come from patent US11013730B1.
